Sourced from patent US20230219986A1

- System Under Test: Ba/F3 De119/T790M/C797S EGFR triple mutant cell line (Homo sapiens, UniProt P00533, T790M/C797S, cells depend on it, form not given)
- Sequence (P00533 with tags, fused parts or gaps DEL746-750/T790M/C797S, form open): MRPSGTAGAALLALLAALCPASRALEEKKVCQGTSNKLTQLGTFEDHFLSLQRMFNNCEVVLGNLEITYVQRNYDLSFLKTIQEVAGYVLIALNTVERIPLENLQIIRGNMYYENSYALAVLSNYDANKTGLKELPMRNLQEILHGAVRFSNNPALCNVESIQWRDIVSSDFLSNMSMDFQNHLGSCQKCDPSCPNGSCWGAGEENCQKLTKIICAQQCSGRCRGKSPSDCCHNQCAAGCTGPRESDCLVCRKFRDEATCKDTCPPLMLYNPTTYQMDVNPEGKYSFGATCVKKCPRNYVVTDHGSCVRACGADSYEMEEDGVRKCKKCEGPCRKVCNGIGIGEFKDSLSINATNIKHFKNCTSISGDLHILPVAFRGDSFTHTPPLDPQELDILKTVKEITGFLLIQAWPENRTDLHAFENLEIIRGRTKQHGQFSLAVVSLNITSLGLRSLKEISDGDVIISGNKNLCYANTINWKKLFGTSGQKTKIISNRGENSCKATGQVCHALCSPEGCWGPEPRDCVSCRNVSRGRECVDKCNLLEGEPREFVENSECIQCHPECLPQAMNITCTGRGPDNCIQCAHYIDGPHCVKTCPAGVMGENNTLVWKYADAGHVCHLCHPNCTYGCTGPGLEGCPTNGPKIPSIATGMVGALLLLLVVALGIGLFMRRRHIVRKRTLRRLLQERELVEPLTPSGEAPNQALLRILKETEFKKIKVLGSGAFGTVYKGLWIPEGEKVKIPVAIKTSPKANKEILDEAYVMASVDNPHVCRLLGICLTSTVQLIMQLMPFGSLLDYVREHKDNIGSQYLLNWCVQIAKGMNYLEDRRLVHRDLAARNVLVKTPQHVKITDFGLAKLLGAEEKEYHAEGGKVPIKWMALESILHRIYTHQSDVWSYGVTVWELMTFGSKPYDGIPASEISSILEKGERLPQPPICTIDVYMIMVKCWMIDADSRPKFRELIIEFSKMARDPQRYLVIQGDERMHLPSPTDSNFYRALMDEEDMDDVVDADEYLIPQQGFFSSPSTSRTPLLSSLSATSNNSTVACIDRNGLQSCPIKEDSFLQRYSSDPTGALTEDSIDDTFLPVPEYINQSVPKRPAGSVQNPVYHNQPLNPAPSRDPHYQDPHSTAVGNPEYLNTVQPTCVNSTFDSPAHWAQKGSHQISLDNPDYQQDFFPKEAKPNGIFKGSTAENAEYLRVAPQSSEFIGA
- Measurement Notes: Cell proliferation inhibition experiment (CellTiter-Glo), Ba/F3 De119/T790M/C797S
- Assay type: cell-based
- Applied Conditions: Ba/F3 Del19/T790M/C797S EGFR triple mutant cells, 72 hours, Cell Titer-Glo; read-out: Ba/F3 (Del19/T790M/C797S) IC50
Metric Name: GI50 (nM)

Reference set, count: 5
COc1cc(N2CCNC(=O)C2)c(-c2cnn(C)c2)cc1Nc1ncc(Br)c(Nc2ccc3nccnc3c2P(C)(C)=O)n1 [compound 105] : 20.9
COc1cc(N2CCN(C3(C)CC3)CC2)c(-c2cnn(C)c2)cc1Nc1ncc(Br)c(Nc2ccc3nccnc3c2P(C)(C)=O)n1 [compound 229] : 3.76
COc1cc(N2CCC3(CCOCC3)CC2)c(-c2cnn(C)c2)cc1Nc1ncc(Br)c(Nc2ccc3nccnc3c2P(C)(C)=O)n1 [compound 215] : 2.23
COc1c(Nc2ncc(Br)c(Nc3ccc4nccnc4c3P(C)(C)=O)n2)cc(-c2cnn(C)c2)c(N2CCC(N3CCN(C)CC3)CC2)c1F [compound 93] : 12.5
COc1nc(N2CCC3(CCN(CCF)CC3)CC2)c(-c2cnn(C)c2)cc1Nc1ncc(Br)c(Nc2ccc3nccnc3c2P(C)(C)=O)n1 [compound 249] : 2.55

A: COc1cc(N2CCOCC2)c(-n2cc(C)cn2)cc1Nc1ncc(Br)c(Nc2ccc3nccnc3c2P(C)(C)=O)n1 [compound 73]
B: COc1cc(N2CCOCC2)c(-c2cnn(S(=O)(=O)C3CC3)c2)cc1Nc1ncc(Br)c(Nc2ccc3nccnc3c2P(C)(C)=O)n1 [Compound 8]
C: COc1cc(N2CCN3CCCC[C@H]3C2)c(-c2cnn(C)c2)cc1Nc1ncc(Br)c(Nc2ccc3nccnc3c2P(C)(C)=O)n1 [compound 166]
D: COc1cc(N2CCC(N3CCN(C)CC3)C(F)C2)c(-c2cnn(C)c2)cc1Nc1ncc(Br)c(Nc2ccc3nccnc3c2P(C)(C)=O)n1 (stereo not shown) [compound 189]
E: COc1cc(N2CCOCC2)c(-c2cn(C)nc2C)cc1Nc1ncc(Br)c(Nc2ccc3nccnc3c2P(C)(C)=O)n1 [compound 43]
Sort ascending by GI50. In plain terms: list the labels in the order you were asked to.
C, D, E, B, A
(C: 1.58 nM, D: 9.18 nM, E: 16.4 nM, B: 69 nM, A: 326 nM)

1: COc1ccc(-n2cccn2)cc1Nc1ncc(Br)c(Nc2ccc3nccnc3c2P(C)(C)=O)n1 [compound 20]
2: COc1cc(N2CCN(CC3CC3)CC2)c(-c2cnn(C)c2)cc1Nc1ncc(Br)c(Nc2ccc3nccnc3c2P(C)(C)=O)n1 [compound 157]
Quick one: lower GI50, 1 or 2 ? When you have decided, please share the label of that item.
2

----------
- System Under Test: wild-type EGFR (Homo sapiens)
- Construct: purchased Signalchem
- Sequence (P00533 25-1210): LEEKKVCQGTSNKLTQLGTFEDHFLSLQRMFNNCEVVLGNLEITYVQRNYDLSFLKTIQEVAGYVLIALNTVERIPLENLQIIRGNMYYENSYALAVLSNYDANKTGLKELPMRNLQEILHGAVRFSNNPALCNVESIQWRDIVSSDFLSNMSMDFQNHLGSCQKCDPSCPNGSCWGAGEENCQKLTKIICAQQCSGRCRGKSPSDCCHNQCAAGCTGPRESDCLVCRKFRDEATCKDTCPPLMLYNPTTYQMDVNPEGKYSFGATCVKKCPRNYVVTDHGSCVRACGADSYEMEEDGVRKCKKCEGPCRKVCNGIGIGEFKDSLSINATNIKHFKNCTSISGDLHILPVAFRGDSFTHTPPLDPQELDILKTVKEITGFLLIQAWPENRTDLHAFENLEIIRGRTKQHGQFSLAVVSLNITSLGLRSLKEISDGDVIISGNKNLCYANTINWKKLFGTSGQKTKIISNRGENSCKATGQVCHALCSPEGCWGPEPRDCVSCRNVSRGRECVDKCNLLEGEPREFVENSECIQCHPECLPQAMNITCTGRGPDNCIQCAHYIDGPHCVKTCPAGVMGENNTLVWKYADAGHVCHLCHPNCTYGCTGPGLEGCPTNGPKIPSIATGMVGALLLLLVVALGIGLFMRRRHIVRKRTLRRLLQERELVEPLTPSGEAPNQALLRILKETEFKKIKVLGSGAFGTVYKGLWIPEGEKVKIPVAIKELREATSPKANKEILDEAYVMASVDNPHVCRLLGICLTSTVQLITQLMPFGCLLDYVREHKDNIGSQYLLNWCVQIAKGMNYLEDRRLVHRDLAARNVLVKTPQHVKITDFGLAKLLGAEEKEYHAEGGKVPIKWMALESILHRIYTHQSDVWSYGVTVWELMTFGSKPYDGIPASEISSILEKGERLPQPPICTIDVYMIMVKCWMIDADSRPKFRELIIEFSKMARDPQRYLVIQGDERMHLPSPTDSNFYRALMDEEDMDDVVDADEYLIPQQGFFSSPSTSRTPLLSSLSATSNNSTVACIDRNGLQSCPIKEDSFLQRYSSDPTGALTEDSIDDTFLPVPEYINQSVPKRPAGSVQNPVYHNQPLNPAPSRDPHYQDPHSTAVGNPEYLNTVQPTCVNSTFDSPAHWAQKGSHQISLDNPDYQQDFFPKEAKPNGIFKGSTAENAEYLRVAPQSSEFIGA
- Measurement Notes: Enzymology experiment in vitro (HTRF/FRET kinase activity), wild-type EGFR
- Assay type: biochemical
- Applied Conditions: HTRF KinEASE-TK, read-out: EGFR (WT) IC50
Metric Name: IC50 (nM)

Reference set, count: 3
COc1cc(N2CCN(C(C)=O)CC2)c(-c2cnn(C)c2)cc1Nc1ncc(Br)c(Nc2ccc3nccnc3c2P(C)(C)=O)n1 : 1.06
COc1cc(N2CCC(OCCN(C)C)CC2)c(-c2cnn(C)c2)cc1Nc1ncc(Br)c(Nc2ccc3nccnc3c2P(C)(C)=O)n1 : 0.62
COc1cc(N2CCC3(CC2)CN(C(C)C)CC(C)(C)O3)c(-c2cnn(C)c2)cc1Nc1ncc(Br)c(Nc2ccc3nccnc3c2P(C)(C)=O)n1 : 10.7

I: COc1cc(N2CCOCC2)c(-c2cnn(C(F)F)c2)cc1Nc1ncc(Br)c(Nc2ccc3nccnc3c2P(C)(C)=O)n1
II: COc1cc(N2CCN(C(N)=O)CC2)c(-c2cnn(C)c2)cc1Nc1ncc(Br)c(Nc2ccc3nccnc3c2P(C)(C)=O)n1
III: COc1cc(N2CCO[C@H](C)C2)c(-c2cnn(C)c2)cc1Nc1ncc(Br)c(Nc2ccc3nccnc3c2P(C)(C)=O)n1
IV: Cn1cc(-c2cc3c(c(Nc4ncc(Br)c(Nc5ccc6nccnc6c5P(C)(C)=O)n4)c2)OCC3)cn1
// ranking: key=IC50, reverse=True In plain terms: list the labels in the order you were asked to.
I, IV, III, II
(I: 45.5 nM, IV: 7.45 nM, III: 4.39 nM, II: 0.92 nM)
